Experiment: Drug repurposing screens with cells derived from glioblastoma tumor samples (AID 1345199); also: potency is read from the fitted curve at half-maximal effect; nearly all actives have a fitted effect of over 40% in size
Conditions: GBM patient neurospheres viability, ATP luminescence, 48 h; tumour line A
Results filed as inconclusive are left out. The source made the active and inactive calls. Calls follow the shape of the dose curve; as a rule, active = well fitted inhibition curve with a large enough effect; inconclusive = small, poorly fitted or top-dose-only effect; inactive = flat fitted curve, though single readings scatter.
Task for the reader: assign each of the following compounds its reported Potency.

Ask | Consider the compound CC(CN(C)C)CN1c2ccccc2S(=O)(=O)c2ccccc21 (stereo not drawn) and give its measured Potency.
Reply | 17.8 µM (active)

Ask | Moving on to `C[C@H]1C[C@H]2[C@@H]3CCC4=CC(=O)C=C[C@]4(C)[C@@]3(F)[C@@H](O)C[C@]2(C)[C@@]1(O)C(=O)CCl`
Reply | 35.5 µM (active)

Ask | Moving on to `CC(=O)[C@@]1(O)CC[C@H]2[C@@H]3C=C(Cl)C4=CC(=O)CC[C@]4(C)[C@H]3CC[C@@]21C`
Reply | 12.6 µM (active)

====

Tested on: Hek293T
Assay: Primary qHTS to identify gynecologic anti-cancer compounds using libraries of approved drugs and bioactive compounds (AID 1345084); also: nearly all actives have a fitted effect of over 55% in size
Conditions: Gynecologic cancer cell panel viability, ATPlite luminescence, 48 h, control line for the selectivity index; series mostly up to 57.5 µM
Records with an inconclusive call do not appear. Active and inactive are the calls of the source. Calls follow the shape of the dose curve; as a rule, active = well fitted cell-killing curve with a large enough effect; inconclusive = small, poorly fitted or top-dose-only effect, or effect the other way; inactive = flat fitted curve, though single readings scatter.
// one of active, inactive, no free text

Ask | Name the outcome recorded for `Cc1cccc(N2CCN(C(=O)c3cc(S(=O)(=O)N(C)C)ccc3N3CCCC3)CC2)c1C` in the assay.
Reply | inactive

Ask | Moving on to CC/C=C\CC1C(=O)C=CC1(CCCCC1CCC(=O)O1)OC(C)=O (centres undefined)
Reply | inactive

Ask | Moving on to `CN1CCN(c2ccc(-c3cccc(CN4CCOCC4)c3)cc2NC(=O)c2c[nH]c(=O)cc2C(F)(F)F)CC1`
Reply | inactive

Ask | Moving on to `CNCc1cc(-c2ccccc2F)n(S(=O)(=O)c2cccnc2)c1`
Reply | inactive

Ask | Moving on to `OC(c1ccc(-c2ccc(CN3CCN(Cc4ccncc4)CC3)cc2)c(F)c1)(C(F)(F)F)C(F)(F)F`
Reply | inactive

Ask | Moving on to `CCNC(=O)c1noc(-c2cc(Cl)c(O)cc2O)c1-c1ccc(OC)cc1`
Reply | active

Ask | Moving on to C=C1CCCC2(C)CCC(C(C)(C)OC3OC(C)C(O)C(O)C3OC(=O)/C(C)=C\C)CC12 (centres undefined)
Reply | inactive

Ask | Moving on to `CCN(CCNC(=O)Nc1ccccc1Br)c1cccc(C)c1`
Reply | inactive

Ask | Moving on to CC(C)C(C)C(O)C1CC23CC(=O)C4(O)C(=C2CCC3C1C)C=CC1(O)CC(O)CCC14C (centres undefined)
Reply | inactive

====

Test system: CASKI
Assay: Primary qHTS to identify gynecologic anti-cancer compounds using libraries of approved drugs and bioactive compounds (AID 1345084); also: nearly all actives have a fitted effect of over 55% in size; as to activity change, negative = cytotoxicity: % is scaled to controls: 0 for no effect and ±100 for the full control effect
Conditions: Gynecologic cancer cell panel viability, ATPlite luminescence, 48 h; series mostly up to 57.5 µM
Records with an inconclusive call do not appear. The source made the active and inactive calls. Calls follow the shape of the dose curve; as a rule, active = well fitted cell-killing curve with a large enough effect; inconclusive = small, poorly fitted or top-dose-only effect, or effect the other way; inactive = flat fitted curve, though single readings scatter.
quantity measured: activity change, negative = cytotoxicity

As a guide, the following entries are already answered.
NS(=O)(=O)c1ccc(NC(=O)Nc2ccc(F)cc2)cc1
inactive
COC1CC(O[C@H]2CC[C@]3(C)C4CC[C@]5(C)C(C6=CC(=O)OC6)=CCC56OC46CC[C@@H]3C2)OC(C)C1O[C@@H]1O[C@H](CO[C@@H]2O[C@H](CO)[C@@H](O)[C@H](O)[C@H]2O)[C@@H](O)[C@H](O)[C@H]1O (stereo partly drawn)
-27.8% [at 11.6 µM] (inactive)
CCCCCCOC(=O)/N=C(\N)c1ccc(NCc2nc3cc(C(=O)N(CCC(=O)OCC)c4ccccn4)ccc3n2C)cc1
inactive
CN1CCN(C2CCN(C(=O)Nc3cc(Oc4ccc(NC(=O)C5(C(=O)Nc6ccc(F)cc6)CC5)c(F)c4)ccn3)CC2)CC1
inactive
CC[C@H](C(=O)Nc1ccccc1N1CCCC1)c1ccccc1
inactive

Ask | activity change, negative = cytotoxicity of `CC(C)S(=O)(=O)NC[C@@H]1CC(c2ccc(N3CCCC3)c(F)c2)=NO1` on CASKI?
Reply | inactive

Ask | Moving on to `C=C1C(=O)O[C@@H]2C[C@@]3(C)CCCC(=C)[C@]3(O)C[C@H]12`
Reply | inactive

Ask | Moving on to C=C1CCC2C(C)(C(=O)O)CCCC2(C)C1CCC1=CCOC1=O (stereo not drawn)
Reply | inactive
